System: A549 NSCLC
experimental protocol: NCI tumour cell line growth inhibition, 48 h
measure name: TGI

Cc1c(NC(=O)Nc2c(Cl)cccc2Cl)c(=O)n(-c2ccccc2)n1C :: > 100 µM

Measured on A549 NSCLC, "CN(c1ccccc1)c1nc(=[N+]2CCCC2)ss1" has a documented TGI of > 100 µM

Noted TGI for "C[C@H](CCC(=O)NCCS(=O)(=O)O)[C@H]1CC[C@H]2[C@@H]3[C@H](O)C[C@@H]4C[C@H](O)CC[C@]4(C)[C@H]3CC[C@]12C" , tested on A549 NSCLC: > 100 µM

I looked up O=[N+]([O-])c1ccc(C2SCc3nc4ccccc4n32)cc1 (centres undefined) and its TGI for A549 NSCLC was > 100 µM

Observed TGI on A549 NSCLC, entry CC(=O)NC1CC(C(C)(C)NC(C)=O)CC=C1C (centres undefined) , equals > 100 µM

The compound CN(C)CC1C(=O)O[C@H]2[C@H]1CC/C(COC(=O)NCc1ccc(Cn3c(=O)sn(CCCI)c3=O)cc1)=C\CC[C@@]1(C)O[C@@H]21 (some centres undefined) , when measured on A549 NSCLC, yielded TGI of 14.4 µM

Observed TGI, A549 NSCLC, CC(=O)[CH-]C(=O)c1ccccc1.CC(=O)[CH-]C(=O)c1ccccc1.CC[C@H](/C=C/C(C)[C@H]1CCC2[C@@H]3CC=C4C[C@@H]([O-])CC[C@]4(C)C3CC[C@@]21C)C(C)C.CC[C@H](/C=C/C(C)[C@H]1CCC2[C@@H]3CC=C4C[C@@H]([O-])CC[C@]4(C)C3CC[C@@]21C)C(C)C.Cl.[Ti+4] (some centres undefined) : > 25 µM

Item "O=C1C(c2c(O)[nH]c3ccc(Cl)cc23)=Nc2ccccc21" was tested on A549 NSCLC; the reported TGI is 20.7 µM

TGI on A549 NSCLC for "COc1cc2c(c(OC)c1OC)C(=O)[C@@H](O)[C@H]2NC(N)=O" is > 100 µM

The measured TGI that Clc1ccc(C(Cc2ccccc2)c2c(Cl)nc(N3CCNCC3)nc2Cl)cc1 (centres undefined) showed for A549 NSCLC is 30.4 µM

* * *

System: SK-MEL-28 melanoma
experimental protocol: NCI tumour cell line growth inhibition, 48 h; in the data active = GI50 below about 0.43 µM; inactive = the rest
Bench note: report the call from t (active), f (inactive)

Previously resolved entries follow.
Cc1cc(-c2nc3n(c2/C=N/N=C(N)N)CCS3)c(C)s1 :: f
Cc1nc2sc(C(=O)Nc3ccccc3)c(N)c2cc1C(O)c1ccccc1 (centres undefined) :: f
CC(=O)O[C@@H]1C2=C(C)C3(CC3)[C@@](C)(O)C(=O)C2=C[C@@]1(C)CO :: f
Cc1c(Cl)cccc1NC(=O)c1sc2nc3c(cc2c1N)C(=O)CCC3 :: t
CC[C@]1(O)C[C@H]2CN(CCc3c([nH]c4ccccc34)[C@@](C(=O)OC)(c3cc4c(cc3OC)N(C)[C@H]3[C@@](O)(C(=O)OC)[C@H](OC(C)=O)[C@]5(CC)C=CCN6CC[C@]43[C@@H]65)C2)C1 :: t
CC(=O)CCc1ccc(Oc2c3c(nc4ccccc24)OCC3)cc1 :: f

-- ask Assay result, entry "CC1=CC(C)(C)Nc2ccc(Cc3ccc4c(c3)C(C)=CC(C)(C)N4)cc21" — outcome?
-- reply f

-- ask Dear colleague, could you share the recorded outcome for "COc1cc2c(NC3CCN(C(C)C)CC3)nc(C3CCCCC3)nc2cc1OCCCN1CCCC1" when you have a moment?
-- reply f

-- ask For "CC(C)c1[nH]nc2c(NCc3ccc(-c4ccccn4)cc3)nc(SCCN(C)C)nc12" , which call appears in the assay record?
-- reply t

* * *

Tested on: HL-60(TB) leukemia
experimental protocol: NCI tumour cell line growth inhibition, 48 h; in the data active = GI50 below about 0.43 µM; inactive = the rest
Return exactly one item of y = active, n = inactive

Example entries begin here.
Cn1cc(C2=C(c3cc[nH]c3)C(=O)NC2=O)c2ccccc21 :: n
CCCCSc1nc(N)c2cn[nH]c2n1 :: n
O=C(NCc1ccco1)C1CCN(S(=O)(=O)c2ccc(Cl)cc2)CC1 :: n
COc1c(B(O)O)cccc1-c1nc2ccc3[nH]ncc3c2c2c1CCCC2 :: n

-- ask Status in this test for "Cc1cc(-c2nc3n(c2/C=N/N=C(N)N)CCS3)c(C)s1" ?
-- reply n

-- ask Assay result, entry "CC(C)c1[nH]nc2c(NCc3ccc(-c4ccccn4)cc3)nc(SCCN(C)C)nc12" — outcome?
-- reply y

* * *

Tested on: MOLT-4 leukemia
experimental protocol: NCI tumour cell line growth inhibition, 48 h
Entries and their TGI

Solved cases (3 shown):
COC(=O)c1ccc(C(=O)OC)c2nc3cc(Cl)ccc3nc12 :: > 100 µM
C[C@H]1COCCN1c1nc(-c2cnc(N)cc2C(F)F)nc(N2CCOCC2)n1 :: 33 µM
O=C(N=Nc1c(Cl)c(O)c2ccccc2c1O)C(=O)Nc1cccc(C(F)(F)F)c1 :: 8.88 µM

Now consider the entry below.
The reported MOLT-4 leukemia TGI of Clc1ccc(C(Cc2ccccc2)c2c(Cl)nc(N3CCNCC3)nc2Cl)cc1 (stereo not drawn) is 15.9 µM

* * *

System: HOP-62 NSCLC
experimental protocol: NCI tumour cell line growth inhibition, 48 h
measure name: TGI

Example entries and their recorded answers appear below.
CCN(CC)/[N+]([O-])=N/OCOC :: > 100 µM
CN1C(=O)[C@H](c2c[nH]c3ccccc23)[C@H](c2c[nH]c3ccccc23)C1=O :: > 64.1 µM
CC1(C2COC(=O)C2)SCCCS1 (stereo not given) :: > 100 µM
CN(C)CC1C(=O)O[C@H]2[C@H]1CC/C(COC(=O)NCc1ccc(Cn3c(=O)sn(CCCI)c3=O)cc1)=C\CC[C@@]1(C)O[C@@H]21 (stereo not given in full) :: 12.7 µM
Cc1ccc(-c2c3c(nn2-c2ccc(S(=O)(=O)NC(=O)NC4CCCCC4)cc2)-c2ccccc2C3)cc1 :: 38.2 µM

Value of TGI reported for the compound "Cc1cc(Cl)nc(N(CCCNc2ccnc3cc(Cl)ccc23)Cc2cccs2)n1" is 10.7 µM

Measured TGI, "O=[N+]([O-])C(C(Cl)=C(Cl)Cl)=C(n1nnc2ccccc21)n1nnc2ccccc21" : > 68.4 µM

GET /value?item= "O=C1C=C(NCC(c2ccccc2)c2ccccc2)C(=O)c2ncccc21" &field=TGI returns 4.02 µM

// sample "Clc1cc(OCc2nn3c(Cc4ccccc4)nnc3s2)c(Cl)cc1OCc1nn2c(Cc3ccccc3)nnc2s1" , its TGI was > 100 µM

Lab note: measured TGI of O=[N+]([O-])c1ccc(C2SCc3nc4ccccc4n32)cc1 (stereo not given) was > 100 µM

Measured TGI of "O=C(/C=C/c1ccccc1)c1cc(C(=O)/C=C/c2ccccc2)c(O)cc1O" : > 100 µM

The compound identified as "CSc1ccc(NC(=O)Nc2cc(C)ccn2)cc1" registered its TGI at > 100 µM

Consider CC(=O)N1C(CCc2ccccc2)CC(C)(C=O)C1Cc1ccc(O[Si](C(C)C)(C(C)C)C(C)C)cc1 (stereo not given) . Its measured TGI is 25.9 µM

TGI in this record for "O=C1C(Cl)=C(Nc2cc(Cl)ccc2O)C(=O)N1Cc1ccccc1" : > 61 µM

Record COc1ccc(/C=C2\CCC(C)c3c2nc(N)c(C#N)c3-c2ccc(OC)c(OC)c2)cc1OC (stereo not given) , field TGI: 9.95 µM

"O=C(CSC(c1ccccc1)c1ccccc1)N/N=C/c1ccccc1Cl" yielded TGI of > 76.8 µM

Sample CN(C(=S)Cc1ccc(Cl)c(Cl)c1)C1CCCC[C@@H]1N1CCCC1 (stereo not given in full) ; TGI observed: > 100 µM

Notebook: "COc1ccc(NC(=O)c2oc3cc(O)ccc3c(=O)c2C)c([N+](=O)[O-])c1" , TGI read as > 100 µM

TGI reported for this compound CC(C)[C@@H]1CC[C@@H](C)C[C@H]1OC(=O)/C=C1\C(C(=O)O[C@@H]2C[C@H](C)CC[C@H]2C(C)C)[C@H]2C=C[C@@H]1O2 (stereo not given in full) : > 100 µM

# TGI (compound: "CC(=O)N1C(=O)c2cc3ccccc3cc21" ) is > 100 µM

* * *

Overview of recorded GI50 for various molecules
System: HCC-2998 colon
experimental protocol: NCI tumour cell line growth inhibition, 48 h

Reference set, count: 4
CC(C)(C)C(=O)c1c(C(F)(F)F)n([O-])c2cc(Cl)c(Cl)cc2[n+]1=O :: 172 nM
CC(C)c1[nH]nc2c(NCc3ccc(-c4ccccn4)cc3)nc(SCCN(C)C)nc12 :: < 18.5 nM
OC(CN1CCCC2CCCCC21)c1cc2ccccc2c2ccccc12 (stereo not given) :: 1780 nM
CCN(CC)S(=O)(=O)c1cccc(-c2ccc3c(NC(=O)C4CC4)n[nH]c3c2)c1 :: > 6250 nM

// "O=C(N/N=C/c1cc(Cl)ccc1O)c1ccccc1Nc1ccnc(C(F)(F)F)c1" : GI50 value = 476 nM
